B1: ZNF207 (parent)
chain: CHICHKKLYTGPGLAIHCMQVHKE

- Variants of: B1
- method-notes: protein stability index of a GFP-peptide fusion (GPS, HEK-293T) (PSI 1-6); higher = more stable;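 note: lentivirally expressed fusions sorted by FACS into six bins by GFP to DsRed ratio, PSI derived from sequencing read proportions per bin multiplied by bin number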
- cond: c terminus: a fixed tail appended
Assign YES to entries whose protein stability index meets or exceeds 3; assign NO to the rest.

Here are 5 variants together with their reported answers.
[[record]]
mutation_id = "M19G"
assigned_label = "YES"

[[record]]
mutation_id = "I16G"
assigned_label = "YES"

[[record]]
mutation_id = "K6F"
assigned_label = "NO"

[[record]]
mutation_id = "H22T"
assigned_label = "NO"

[[record]]
mutation_id = "H5W"
assigned_label = "NO"


Next, consider the following variant.
Could you please find out whether K6C has protein stability index that meets 3 or exceeds it?
YES

The measurements presented in this section are drawn from the supplement of paper PMC10567573.
